Data credit: PubChem BioAssay (NCI)

tested on: BT-549 breast; assay: NCI tumour cell line growth inhibition, 48 h
Each record here notes measured GI50.
ATTRIBUTE_MEASURED: GI50

MOLECULE | EXPERIMENTAL_RESULT
N#Cc1c(NC(=O)NCc2ccccc2)sc2c1CCCCC2 | 0.923 µM
Cn1c(I)c(C#CCO[Si](C)(C)C(C)(C)C)c(=O)[nH]c1=O | 16.4 µM
CNCc1ccccc1-c1csc([C@@H](C)Nc2nc(C)nc3cc(OC)c(OC)cc23)c1 | 1.76 µM
COc1cc(OCc2cccc(-c3ccc(C(O)c4nccs4)cc3)c2C)cc(OC)c1C=O (stereo not given) | 1.77 µM
COC(=O)c1ccc2c(c1)nc(NC(=O)c1ccccc1)n2CCCc1ccccc1 | 3.33 µM

---

tested on: OVCAR-4 ovarian; assay: NCI tumour cell line growth inhibition, 48 h
Each record here notes measured TGI.

COMPOUND | EXPERIMENTAL_TARGET | TGI
CC(=O)Nc1sc(Br)cc1S(=O)(=O)c1ccc(Cl)cc1 | OVCAR-4 ovarian | 64.5 µM
COc1cc(Nc2ncccc2C(=O)NCc2cn(Cc3cccc(Oc4ccccc4)c3)nn2)cc(OC)c1 | OVCAR-4 ovarian | > 100 µM
O=C(/C=C/c1ccccc1)Oc1cccc(O)c1 | OVCAR-4 ovarian | > 100 µM
O=[N+]([O-])C[C@@]12O[C@]3(O)C4C5CC(C6C5C3C61)C42 (stereo not given in full) | OVCAR-4 ovarian | > 100 µM
Cc1c2n(c(=O)[nH]c1=O)C1OC(CO)C(O2)C1O (stereo not given) | OVCAR-4 ovarian | > 100 µM
CC(=O)c1ccccc1NP(=O)(c1ccccc1)c1ccccc1 | OVCAR-4 ovarian | > 100 µM
CC1(C)N=C(N)N=C(N)N1c1ccc(CCCCc2ccc(Cl)cc2S(=O)(=O)F)c(Cl)c1 | OVCAR-4 ovarian | 19.2 µM
CN1CC(=O)N2Cc3ccccc3-n3cccc3C2C1 (stereo not given) | OVCAR-4 ovarian | > 100 µM
Cc1c(O)ccc2c(O)c(NC(=O)c3ccc4c(c3)CCC(C)(C)O4)c(=O)oc12 | OVCAR-4 ovarian | > 100 µM
CCOC1(OCC)C2C=CC1C(COS(=O)(=O)c1ccc(C)cc1)C2COS(=O)(=O)c1ccc(C)cc1 (stereo not given) | OVCAR-4 ovarian | 79.2 µM

---

tested on: BT-549 breast; assay: NCI tumour cell line growth inhibition, 48 h

MOLECULE | UNITS_LABEL | COMPARATOR | TGI
C=C(Cl)C(=CCl)CCC(Br)C(C)(C)Cl (mixture of isomers) | µM | > | 10
Cc1ccc(-n2cnc(C(=N)C#N)c2N)cc1 | µM | > | 100
COc1cc(C2c3cc4c(cc3OC(N3CCCCC3)C2C)OCO4)cc(OC)c1O (configuration not stated) | µM | = | 90.5
Nc1ccc2c(c1)C(=O)N1CCC[C@H]1C(=O)N2 | µM | > | 100
C[C@H]1[C@H]2[C@H]3CC[C@@H]4[C@@]5(C)CC[C@H](O)C(C)(C)[C@@H]5CC[C@@]4(C)[C@]3(C)C[C@H](O)[C@@]2(C)C[C@H]2O[C@]21C | µM | = | 41.5
NC(=O)/C=C/C(=O)c1c(Cl)cccc1Cl | µM | = | 3.03
NC(=S)N/N=C/C(=O)O | µM | > | 100
O=C(N/N=C(\c1ccccc1)c1ccccn1)NC1CCCCC1 | µM | > | 100
CN1CCc2c([nH]c3ccccc23)C1 | µM | > | 100
CC1(C)OC(C(=O)Nc2cc3c4ccccc4ccc3c3ccccc23)C(C(=O)N2CCCCC2)O1 (configuration not stated) | µM | > | 100
O=C(O)C(O)C(O)C(O)C(O)c1nc2ccccc2s1 (configuration not stated) | µM | = | 63.2
COc1ccc(/C=C\[N+](=O)[O-])cc1OC | µM | = | 5.21
Oc1ccc(Nc2ncnc3c2sc2ncccc23)cc1 | µM | > | 100
CC(=O)N=C1N(/C=C2\C(=O)Oc3ccccc3C2=O)C(=O)/C(=C/c2cccc(Cl)c2Cl)N1C | µM | = | 75.3
O=C(Nc1ccc2ncccc2c1)Nc1ccc2ncccc2c1 | µM | > | 100
N#Cc1c(N)nc(N2CCOCC2)c(C#N)c1-c1ccncc1 | µM | > | 100
CNCc1ccccc1-c1csc([C@@H](C)Nc2nc(C)nc3cc(OC)c(OC)cc23)c1 | µM | = | 3.55
Cc1[nH]c(=O)nc2nc3ccc(Cl)cc3c(NCCNCCO)c12 | µM | = | 30.5
CO[C@@]12C[C@@H](C)C3=CCC(C)=C3CC1=C(C)C(=O)O2 | µM | > | 100
Cc1cc(Nc2ccc(NC(=O)c3ccc(Nc4ccnc5ccccc45)cc3)cc2)nc(N)n1 | µM | = | 5.74
CC(=O)Nc1ccc(N=Nc2c(O)c(S(=O)(=O)O)cc3cc(S(=O)(=O)O)ccc23)cc1 | µM | > | 100
COC(=O)c1ccc(/C=C/c2cc(O)ccc2O)cc1 | µM | = | 3.49
